Test: Zeta potential in 10 mM HEPES buffer (pH 7.4)
Assay type: physicochemical
Settings: pFluc-loaded LNP, N/P ratio 6
Protocol: The average particle size (number-average value) and PDI in PBS(−) and zeta potential in 10 mM HEPES buffer solution (pH 7.4) of lipid nanoparticles were measured using “Zetasizer Nano ZS ZEN3600”, an analyzer utilizing dynamic light scattering (manufactured by Malvern).
Item-by-item account of ζ-potential (mV)

[
  {
    "COMPOUND": "CCCN(CCC)CCCCC(O)(CCCCCCOC(=O)C(CCC(C)CC(C)(C)C)C(C)CC(C)(C)C)CCCCCCOC(=O)C(CCC(C)CC(C)(C)C)C(C)CC(C)(C)C (stereo not drawn)",
    "ζ-potential (mV)": "−2.46 mV"
  },
  {
    "COMPOUND": "CCCCCCCC/C=C\\CCCCCCCC(=O)OCCCCCCC(O)(CCCCCCOC(=O)CCCCCCC/C=C\\CCCCCCCC)CCCCN(CCC)CCC [CL4H6, reference compound]",
    "ζ-potential (mV)": "−0.57 mV"
  }
]

Below: the item to evaluate.
Q: Entry under review: CCCCCCCCC(CCCCCC)C(=O)OCCCCCCC(O)(CCCCCCOC(=O)C(CCCCCC)CCCCCCCC)CCCCOC(=O)C1CCN(C)CC1 (stereo not drawn) . Reported ζ-potential (mV)?
Result: −2.02 mV
